# assay-overview: amyloid nucleation score (Sup35N fusion, yeast selection) (log enrichment); library NNK2; higher = more nucleation; inactive = no reads after selection;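 further: zero at mode of non-aggregating sequences after 7 days selection at 30°C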
Assign Met whenever amyloid nucleation score does not fall below 0.3; assign Not met whenever it does.

Example results:
TDHMHKISRVHRDKKMSVGF | Not met
DISWYCGDHGSVVVECRNDL | Met
RVVRLAFNPRPSDAWILYR | Met
RVYLFFYAYHHVICANSSYK | Not met
RSRSGVLVERFMAVSWDAWH | Met

Given TGWSGRGMVKSDPYRACGGD , state whether its amyloid nucleation score is at least 0.3.
Not met

Confirm if amyloid nucleation score reported for the substance CWLGASTSNGLPAAGPSGLH is 0.3 or above.
Met

Does WIAGLCPVDMADL have a reported amyloid nucleation score of at least 0.3?
Met

I'd appreciate it if you could say whether FFEMFGCHMFLLMAYLTI has amyloid nucleation score at least equal to 0.3.
Not met
